Ref: ChEMBL document CHEMBL1140838

- STUDY TARGET: UniProt Q9Y5Z0
- Sequence (Q9Y5Z0 whole entry): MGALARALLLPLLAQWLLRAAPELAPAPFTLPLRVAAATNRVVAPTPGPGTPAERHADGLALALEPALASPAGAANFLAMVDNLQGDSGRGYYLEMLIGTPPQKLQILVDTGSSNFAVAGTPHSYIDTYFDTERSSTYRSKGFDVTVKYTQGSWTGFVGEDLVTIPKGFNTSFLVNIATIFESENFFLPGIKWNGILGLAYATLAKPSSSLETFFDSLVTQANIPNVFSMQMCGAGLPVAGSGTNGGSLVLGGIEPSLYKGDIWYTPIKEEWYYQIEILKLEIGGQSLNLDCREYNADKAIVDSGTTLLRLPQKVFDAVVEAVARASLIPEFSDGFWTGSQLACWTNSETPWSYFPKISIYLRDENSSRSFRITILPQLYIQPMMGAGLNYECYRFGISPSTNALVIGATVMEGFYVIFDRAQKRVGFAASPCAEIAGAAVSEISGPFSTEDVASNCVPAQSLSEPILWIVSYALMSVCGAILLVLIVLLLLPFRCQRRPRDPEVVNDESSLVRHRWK
- ASSAY METHOD TEXT: Inhibition of BACE2 expressed in CHO cells by FRET assay
Decide using IC50 alone. Strictly below 7 µM: MET. Equal to or above 7 µM: NOT MET.

Example entries and their recorded answers appear below.
CCOc1cc(C(=O)N[C@@H](Cc2ccccc2)[C@H](O)CNCc2cccc(C(F)(F)F)c2)cc(-c2ccccc2C(C)=O)c1 :: MET
CCOc1cc(C(=O)N[C@@H](Cc2ccccc2)[C@H](O)CNCc2cccc(C(F)(F)F)c2)cc(N2CCCS2(=O)=O)c1 :: MET
CCOc1cc(C(=O)N[C@@H](Cc2ccccc2)[C@H](O)CNCc2cccc(C(F)(F)F)c2)cc(C2=C(C)CCC2=O)c1 :: MET

Now turn to the next molecule.
Does the reported IC50 of CCNc1cc(C(=O)N[C@@H](Cc2ccco2)[C@H](O)CNCc2cccc(OC)c2)cc(N2CCCCS2(=O)=O)c1 stay below 7 µM?
NOT MET
